// provenance: ChEMBL document CHEMBL3507680

- Test: Human HepG2 cell viability assay in 384 well format
- Assay type: toxicity, cell-based
- Design: dose 125 nL, time 70.5 hour; concentration not given beside the values
- Condition notes: HepG2 cells, read-out: Inhibition
Endpoint: cytotoxicity at 70.5 h (%)

In [3]: df
Out[3]:
                                    molecule                endpoint  assay_result
 0  Cc1cnc2n(c1=O)C(CC(=O)NCc1ccccc1Cl)CS2 (centres undefined)  cytotoxicity at 70.5 h            35
 1  O=C(c1cccnc1)N1CC[C@H](OCC2CC2)[C@@H]1Cc1cccnc1  cytotoxicity at 70.5 h         -5.08
 2  Cc1noc([C@@H]2C[C@H]3OCC[C@H]3N(S(=O)(=O)c3ccccc3)C2)n1  cytotoxicity at 70.5 h         -1.71
 3         CCCc1nnc(N[C@H](C)c2ccc(OC)cc2)o1  cytotoxicity at 70.5 h         -10.6
 4  Cc1ccccc1C(=O)N1CCOCC1CN(C)C (centres undefined)  cytotoxicity at 70.5 h         -9.03
 5  CC(Cn1cncn1)NCc1nncn1C1CCCCC1 (centres undefined)  cytotoxicity at 70.5 h         -1.66
 6       CN(Cc1ccc(F)cc1)C(=O)NCc1nnc2n1CCC2  cytotoxicity at 70.5 h         -10.4
 7            COCCC(=O)Nc1nccn1Cc1ccc(Br)cc1  cytotoxicity at 70.5 h        -0.141
 8  NC(=O)C1CN(C(=O)Nc2ccccc2OCC(F)(F)F)CCO1 (centres undefined)  cytotoxicity at 70.5 h         -4.53
 9  c1ccc(CN2C[C@@H]3COC[C@]3(COCC3CCOCC3)C2)nc1  cytotoxicity at 70.5 h          1.04
10        CCOc1ncccc1NC(=O)NC1CCN(C(C)=O)CC1  cytotoxicity at 70.5 h          1.62
11  CN(C)S(=O)(=O)NC(=O)CC(c1ccccc1)C(F)(F)F (centres undefined)  cytotoxicity at 70.5 h         -2.07
12  CC(C)=CCN1CC2(CCN(C(=O)CCn3ccnc3C)CC2)CC1=O  cytotoxicity at 70.5 h         0.368
13    CCn1cc(CN(C)Cc2cnn(-c3ccc(F)cc3)c2)cn1  cytotoxicity at 70.5 h          13.5
14  Cc1ccsc1[C@@H]1CCN(C(=O)CCC(=O)c2ccccc2)C[C@H]1O  cytotoxicity at 70.5 h         -9.94
15  Cn1cccc1C(=O)NC(C)(C(N)=O)c1cccc(Cl)c1 (centres undefined)  cytotoxicity at 70.5 h         -98.6
16  Cc1cc(C)n(CC2CCCN2C(=O)c2ccc3c(c2)nnn3C)n1 (centres undefined)  cytotoxicity at 70.5 h          1.66
17  CC(C)CN1CCC2(C=C(C(=O)N(C)C)c3ccccc32)CC1  cytotoxicity at 70.5 h         -2.19
18              CCN(CCNC(=O)c1ccccc1Br)C1CC1  cytotoxicity at 70.5 h         -3.52
19              COCCSCC(=O)NCc1ccc(N(C)C)nc1  cytotoxicity at 70.5 h         -4.15
20      CC(=O)N1CCCN(C(=O)NCCc2ccc(Cl)s2)CC1  cytotoxicity at 70.5 h         -1.97
21  CC(C)Nc1cc(-c2c[nH]nc2C2CCN(C(=O)C3CC3)C2)ccn1 (centres undefined)  cytotoxicity at 70.5 h          96.7
22  CCn1cc(Cl)c(C(=O)Nc2ccc3c(c2)C(C)(C)C(=O)N3C)n1  cytotoxicity at 70.5 h         -16.6
23  Cn1nc(C2CC2)c2c1NC(=O)CC2c1cc(CN2CCCC2)cs1 (centres undefined)  cytotoxicity at 70.5 h         -8.83
